# SYSTEM: Nonstructural protein 5A (Hepatitis C virus, UniProt Q5L478)
# Sequence (Q5L478 whole entry): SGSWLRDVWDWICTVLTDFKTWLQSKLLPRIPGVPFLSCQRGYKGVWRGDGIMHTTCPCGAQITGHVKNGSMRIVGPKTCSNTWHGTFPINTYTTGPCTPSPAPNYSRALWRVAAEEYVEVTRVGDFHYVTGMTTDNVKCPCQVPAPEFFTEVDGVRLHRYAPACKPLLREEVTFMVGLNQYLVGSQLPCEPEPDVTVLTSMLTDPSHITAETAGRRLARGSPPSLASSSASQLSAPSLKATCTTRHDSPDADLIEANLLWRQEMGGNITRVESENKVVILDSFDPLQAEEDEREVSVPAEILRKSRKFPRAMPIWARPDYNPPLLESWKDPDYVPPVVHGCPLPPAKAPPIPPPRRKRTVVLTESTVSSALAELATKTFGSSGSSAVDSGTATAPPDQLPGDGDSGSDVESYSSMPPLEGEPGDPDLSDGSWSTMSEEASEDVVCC
# ASSAY: Inhibition of Hepatitis C virus 1a NS5A Q30R mutant
# Parameters: species or system Hepatitis C virus subtype 1a
TEST READOUT: EC50 (nM)
Reply numerically in nM, unit not repeated.

# SUBSTANCE SMILES, SYSTEM, MEASURE UNIT, EC50
rows = [
    ("COC(=O)N[C@H](C(=O)N1CCC[C@H]1c1ncc(-c2ccc(-c3ccc(-c4cnc([C@@H]5CCCN5C(=O)[C@@H](NC(=O)OC)C(C)C)[nH]4)cc3)cc2)[nH]1)C(C)C", "Nonstructural protein 5A (Hepatitis C virus, UniProt Q5L478)", "nM", 61),
]

[ask] Report EC50 for CC(C)(C)C#CCOC(=O)N[C@@H]1CCN(C(=O)N[C@@H](C(=O)N2CCC[C@H]2c2nc(-c3ccc([C@H]4CC[C@H](NC(=O)c5cnc(CO)cn5)CC4)cc3)c[nH]2)c2ccccc2)C1 please.
[reply] 0.18
